Parameter Prodrug (%): see the listing below.
Assay: Plasma Stability Assay (Example A2), mouse plasma
Format: in vitro ADME
Settings: Mouse Plasma, 37° C., prodrug remaining; 30 min
Experimental: Each test was carried out in duplicate for each time point; 0 min, 15 min, 30 min, 60 min, 120, 240 min. […]

Example results:
> print(dat)
                                test.smiles  measured.result
1  COc1ccc([C@@]23CCC(OP4(=O)OCC(C)(C)CO4)=C[C@@H]2N(C)CC3)cc1OC             >99%
2  CCN(C)C(=O)OC1=C[C@@H]2N(C)CC[C@]2(c2ccc(OC)c(OC)c2)CC1            96.6%

Data point: `COc1ccc([C@@]23CCC(OC(=O)N(C)C)=C[C@@H]2N(C)CC3)cc1OC` ; Prodrug (%) = 94.4%

Entry under test: `COc1ccc([C@@]23CCC(OC(=O)N4CCN(C)CC4)=C[C@@H]2N(C)CC3)cc1OC` . Its Prodrug (%) was >99%

Quick note, Prodrug (%) for `COc1ccc([C@@]23CCC(OP(=O)(Oc4ccccc4)Oc4ccccc4)=C[C@@H]2N(C)CC3)cc1OC` landed at 46.5%

Measured Prodrug (%), `COc1ccc([C@@]23CCC(OP(=O)(OC(C)C)OC(C)C)=C[C@@H]2N(C)CC3)cc1OC` : 74.5%

// sample `COc1ccc([C@@]23CCC(OP(=O)(O)O)=C[C@@H]2N(C)CC3)cc1OC` , its Prodrug (%) was 82.7%

====

Entries and their Prodrug (%) values follow.
Assay: Plasma Stability Assay (Example A3), rat plasma
Type: in vitro ADME
Settings: 10 μM, 37° C., prodrug remaining, 120 min

Take a look at these entries with their results.
> print(dat)
                                test.smiles  property.name  measured.result
1  COc1ccc([C@@]23CCC(OP(=O)(OC(C)C)OC(C)C)=C[C@@H]2N(C)CC3)cc1OC    Prodrug (%)            68.4%
2  COc1ccc([C@@]23CCC(OP(=O)(O)OCOC(=O)C(C)C)=C[C@@H]2N(C)CC3)cc1OC    Prodrug (%)             0.8%

Attention now shifts to the item below.
GET /value?item= `COc1ccc([C@@]23CCC(OP4(=O)OCCCO4)=C[C@@H]2N(C)CC3)cc1OC` &field=Prodrug (%) returns 91.0%

Numbers sourced from patent US20260015322A1.
